- target: T1, apical domain of human CD71 (human, UniProt P02786 189-383, limits assumed)
- T1 construct: domain: apical domain; Screen 4 panned against human apical domains; also called human apical domain
- T1 sequence (P02786 189-383 limits assumed): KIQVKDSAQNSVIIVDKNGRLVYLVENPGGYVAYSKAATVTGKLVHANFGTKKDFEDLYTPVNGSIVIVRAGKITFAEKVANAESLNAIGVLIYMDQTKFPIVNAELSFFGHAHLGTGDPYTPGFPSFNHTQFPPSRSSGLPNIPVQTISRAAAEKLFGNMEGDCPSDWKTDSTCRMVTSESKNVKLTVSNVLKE
- testProtocol: primary ELISA screen, Screen 4; signal on apical domain over signal on HSA
metricName: Apical domain:HSA (ratio)

INSERT INTO measurements (binder, valueunits, observedvalue) VALUES
  ('CD71-binding FN3 domain of SEQ ID NO: 550 (designed binder) MLPAPKNLVVSRVTEDSARLSWTAPDAAFDSFFIGYLEPQPPGEAIHLFVPGSERSYDLTGLKPGTEYNVTIQGVKGGFPSIPLYARFTT', 'ratio', 170),
  ('CD71-binding FN3 domain of SEQ ID NO: 546 (designed binder) MLPAPKNLVVSRVTEDSARLSWTAPDAAFDSFEIAYIEVNIQGEAIVLTVPGSERSYDLTGLKPGTEYYVHIGGVKGGPSSSPLSAIFTT', 'ratio', 466),
  ('CD71-binding FN3 domain of SEQ ID NO: 549 (designed binder) MLPAPKNLVVSRVTEDSARLSWTAPDAAFDSFFIGYLEPQPPGEAISLWVPGSERSYDLTGLKPGTEYNVTIQGVKGGFPSMPLSAIFTT', 'ratio', 242),
  ('CD71-binding FN3 domain of SEQ ID NO: 551 (designed binder) MLPAPKNLVVSRVTEDSARLSWTAPDAAFDSFEIAYFETCRTGEAIVLTVPGSERSYDLTGLKPGTEYWVQIGGVKGGNWSAPLSAIFTT', 'ratio', 158);
